measurementTarget: T1, recombinant IL-3Rα ectodomain (human, UniProt P26951 19-305)
T1 construct: extracellular domain; also called recombinant IL-3Ra; biotinylated-IL-3Rα ectodomain
T1 sequence (looked up): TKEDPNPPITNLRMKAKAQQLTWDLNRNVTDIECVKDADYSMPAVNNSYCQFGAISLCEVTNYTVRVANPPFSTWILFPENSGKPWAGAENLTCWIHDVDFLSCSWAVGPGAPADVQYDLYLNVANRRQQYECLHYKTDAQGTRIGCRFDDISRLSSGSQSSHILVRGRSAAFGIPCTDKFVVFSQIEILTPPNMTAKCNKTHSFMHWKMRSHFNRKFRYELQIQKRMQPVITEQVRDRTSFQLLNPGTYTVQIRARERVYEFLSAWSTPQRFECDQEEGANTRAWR
runDescription: ELISA on recombinant IL-3Ra ectodomain (lower right panel)
measuredAttribute: EC50 (read off the curve)

Any idea what its EC50 (read off the curve) is? The binder is 57A07-35GS-14D09 (bispecific antibody, FLAG3-His6 also made; also called CD123#1-CXCR4#1; 57A07-14D09) EVQLVESGGGLVQAGGSLRLSCAASGSIFSGNVMGWYRRQAPGKEREWVAAIASGGSIYYRDSVKGRFTISRDNAKNTVYLQMNSLKPEDTAVYYCNSHPPTLPYWGQGTLVTVSSGGGGSGGGGSGGGGSGGGGSGGGGSGGGGSGGGGSEVQLVESGGGLVQAGGSLRLSCVASGISSSKRNMGWYRQAPGKQRESVATISSGGNKDYTDAVKDRFTISRDTTKNTVYLQMNSLKPEDTAVYYCKIEAGTGWATRRGYTYWGQGTLVTVSS
~0.5 nM
